molecular target: EGFR (Homo sapiens (Human), UniProt P00533); assay: ErbB Enzyme Assay (HTRF KinEASE-TK), Assay 3; format: biochemical; conditions: EGFR enzyme
Sequence (P00533 25-1210): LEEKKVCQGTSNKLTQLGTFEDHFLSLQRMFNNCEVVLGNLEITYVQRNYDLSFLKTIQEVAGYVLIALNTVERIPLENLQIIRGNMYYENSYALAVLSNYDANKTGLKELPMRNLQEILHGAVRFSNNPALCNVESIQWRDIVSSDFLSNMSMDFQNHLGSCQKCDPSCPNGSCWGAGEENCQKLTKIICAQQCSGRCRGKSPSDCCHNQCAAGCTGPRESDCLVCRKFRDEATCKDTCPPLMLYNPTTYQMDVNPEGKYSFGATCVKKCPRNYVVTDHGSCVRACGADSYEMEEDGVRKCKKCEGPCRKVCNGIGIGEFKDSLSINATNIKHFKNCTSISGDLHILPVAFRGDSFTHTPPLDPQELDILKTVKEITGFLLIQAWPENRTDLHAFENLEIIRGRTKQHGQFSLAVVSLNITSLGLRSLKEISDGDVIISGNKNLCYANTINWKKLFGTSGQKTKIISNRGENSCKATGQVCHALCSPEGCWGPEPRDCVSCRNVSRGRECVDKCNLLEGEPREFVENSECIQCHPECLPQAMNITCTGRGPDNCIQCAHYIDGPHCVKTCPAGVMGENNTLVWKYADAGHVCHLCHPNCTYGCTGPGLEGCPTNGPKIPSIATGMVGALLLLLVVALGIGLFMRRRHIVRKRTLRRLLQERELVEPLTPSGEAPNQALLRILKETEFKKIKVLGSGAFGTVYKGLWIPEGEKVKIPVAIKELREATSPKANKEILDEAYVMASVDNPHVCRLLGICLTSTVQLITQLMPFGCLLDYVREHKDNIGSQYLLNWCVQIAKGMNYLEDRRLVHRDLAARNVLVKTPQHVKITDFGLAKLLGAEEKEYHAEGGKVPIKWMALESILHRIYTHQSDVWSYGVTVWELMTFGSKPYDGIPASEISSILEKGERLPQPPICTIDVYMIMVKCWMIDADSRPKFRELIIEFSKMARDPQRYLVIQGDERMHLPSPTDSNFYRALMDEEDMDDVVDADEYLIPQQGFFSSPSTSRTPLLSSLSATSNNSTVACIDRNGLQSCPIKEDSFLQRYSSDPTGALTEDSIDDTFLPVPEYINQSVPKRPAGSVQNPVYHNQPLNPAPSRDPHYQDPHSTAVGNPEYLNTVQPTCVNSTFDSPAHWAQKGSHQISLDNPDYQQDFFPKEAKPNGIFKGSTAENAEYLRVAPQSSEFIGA
pIC50: −log10 of the molar value.
measurement_label: pIC50

{"columns": ["compound", "pIC50"],
 "data": [
  ["C=CS(=O)(=O)Nc1ccc2ncnc(Nc3ccc(Oc4ccc5c(c4)ncn5C)c(C)c3)c2n1", 6.47]
]}

(a) C=CC(=O)N1CCN(c2ccc3ncnc(Nc4ccc(Oc5ccn6ncnc6c5)c(Cl)c4)c3n2)CC1
(b) C=CC(=O)N1CCC[C@@H](c2ccc3ncnc(Nc4ccc(Oc5ccc6c(c5)ncn6C)c(C)c4F)c3n2)CC1 (racemic)
Lookup: Parameter metric = pIC50. Return the lower-valued option from a and b . Return value: the label identifying the chosen record.
Found: b

(a) C=CC(=O)N1CCCN(c2nc3c(Nc4ccc(Oc5ccn6ncnc6c5)c(C)c4F)ncnc3cc2OC)CC1
(b) C=CC(=O)N1CCN(c2ccc3ncnc(Nc4ccc(Oc5cnc6c(c5)ncn6C)c(C)c4)c3n2)CC1
(c) C=CC(=O)N1CCC(Oc2ccc3ncnc(Nc4ccc(Oc5ccn6ncnc6c5)c(Cl)c4F)c3n2)CC1
Lookup: Arrange the 3 entries by pIC50 so the values rise. # answer = labels listed in requested order
Found: b, a, c
(b: 5.21, a: 5.81, c: 6.66)

====

molecular target: EGFR (Homo sapiens (Human)); experiment: ErbB Enzyme Assay (HTRF KinEASE-TK), Assay 3; type: biochemical; details: EGFR enzyme assay
measurement_label: IC50 (nM)

For orientation, consider the following solved cases.
{"columns": ["compound", "measured_target", "readout_units", "IC50"],
 "data": [
  ["C=CC(=O)N1CCN(c2ccc3ncnc(Nc4ccc(Oc5cnc6c(c5)ncn6C)c(C)c4F)c3n2)C[C@@H]1C(F)F (racemic)", "EGFR (Homo sapiens (Human))", "nM", 277],
  ["C=CC(=O)N1CC2(CCN2c2ccc3ncnc(Nc4ccc(Oc5ccn6ncnc6c5)c(C)c4F)c3n2)C1", "EGFR (Homo sapiens (Human))", "nM", 2870],
  ["C=CC(=O)N1C[C@H](c2ccc3ncnc(Nc4ccc(Oc5ccn6ncnc6c5)c(C)c4F)c3n2)C[C@@H]1C1CC1 (racemic)", "EGFR (Homo sapiens (Human))", "nM", 712],
  ["C=CC(=O)N1CCN(c2ccc3ncnc(Nc4cc(C)c(Oc5ccn6ncnc6c5)cc4F)c3n2)C[C@H]1COC", "EGFR (Homo sapiens (Human))", "nM", 772],
  ["C=CC(=O)N1CCN(c2ccc3ncnc(Nc4ccc(Oc5ccn6ncnc6c5)c(C)c4F)c3n2)C[C@H]1C(C)(C)C", "EGFR (Homo sapiens (Human))", "nM", 5070],
  ["C=CC(=O)N1CCC12CN(c1ccc3ncnc(Nc4ccc(Oc5ccn6ncnc6c5)c(C)c4F)c3n1)C2", "EGFR (Homo sapiens (Human))", "nM", 895],
  ["C=CC(=O)N1C2CC1CN(c1ccc3ncnc(Nc4ccc(Oc5ccc6c(c5)ncn6C)c(Cl)c4F)c3n1)C2", "EGFR (Homo sapiens (Human))", "nM", 255],
  ["C=CC(=O)N1CC2CC(C1)N2c1ccc2ncnc(Nc3ccc(Oc4cnc5c(c4)ncn5C)c(C)c3F)c2n1", "EGFR (Homo sapiens (Human))", "nM", 587],
  ["C=CC(=O)N1[C@@H]2CC[C@H]1CC(c1ccc3ncnc(Nc4ccc(Oc5ccn6ncnc6c5)c(C)c4F)c3n1)C2 (stereo partly drawn)", "EGFR (Homo sapiens (Human))", "nM", 2480],
  ["C=CC(=O)N1CCN(c2ccc3ncnc(Nc4ccc(Oc5ccn6ncnc6c5)c(C)c4F)c3n2)CC12CC2", "EGFR (Homo sapiens (Human))", "nM", 108]
]}

(a) C=CC(=O)N1CC[C@@H]2C[C@H]1CN2c1ccc2ncnc(Nc3ccc(Oc4cnc5c(c4)ncn5C)c(C)c3F)c2n1
(b) C=CC(=O)N1CCN(c2ccc3ncnc(Nc4ccc(Oc5ccn6ncnc6c5)c(C)c4F)c3n2)C[C@@H]1COC
(c) C=CC(=O)N1CCN(c2ccc3ncnc(Nc4ccc(Oc5ccn6ncnc6c5)c(Cl)c4F)c3n2)CC12CC2
Lookup: Reorder: IC50, max to min. Sort the labels as requested; that list is your answer.
Found: b, a, c
(b: 1080 nM, a: 268 nM, c: 22.3 nM)

====

target: ErbB2 with Exon 20 YVMA insertion (HER2-YVMA) (Homo sapiens (Human), UniProt P04626, INS775YVMA); assay: Cellular Phosphorylation Assay, Assay 4 (constitutive ErbB2 phosphorylation, NIH 3T3 cells); assay type: cell-based; conditions: ErbB2 YVMA phosphorylation
Sequence (P04626 other isoform, or with tags, fused parts or gaps ins YVMA behind 775): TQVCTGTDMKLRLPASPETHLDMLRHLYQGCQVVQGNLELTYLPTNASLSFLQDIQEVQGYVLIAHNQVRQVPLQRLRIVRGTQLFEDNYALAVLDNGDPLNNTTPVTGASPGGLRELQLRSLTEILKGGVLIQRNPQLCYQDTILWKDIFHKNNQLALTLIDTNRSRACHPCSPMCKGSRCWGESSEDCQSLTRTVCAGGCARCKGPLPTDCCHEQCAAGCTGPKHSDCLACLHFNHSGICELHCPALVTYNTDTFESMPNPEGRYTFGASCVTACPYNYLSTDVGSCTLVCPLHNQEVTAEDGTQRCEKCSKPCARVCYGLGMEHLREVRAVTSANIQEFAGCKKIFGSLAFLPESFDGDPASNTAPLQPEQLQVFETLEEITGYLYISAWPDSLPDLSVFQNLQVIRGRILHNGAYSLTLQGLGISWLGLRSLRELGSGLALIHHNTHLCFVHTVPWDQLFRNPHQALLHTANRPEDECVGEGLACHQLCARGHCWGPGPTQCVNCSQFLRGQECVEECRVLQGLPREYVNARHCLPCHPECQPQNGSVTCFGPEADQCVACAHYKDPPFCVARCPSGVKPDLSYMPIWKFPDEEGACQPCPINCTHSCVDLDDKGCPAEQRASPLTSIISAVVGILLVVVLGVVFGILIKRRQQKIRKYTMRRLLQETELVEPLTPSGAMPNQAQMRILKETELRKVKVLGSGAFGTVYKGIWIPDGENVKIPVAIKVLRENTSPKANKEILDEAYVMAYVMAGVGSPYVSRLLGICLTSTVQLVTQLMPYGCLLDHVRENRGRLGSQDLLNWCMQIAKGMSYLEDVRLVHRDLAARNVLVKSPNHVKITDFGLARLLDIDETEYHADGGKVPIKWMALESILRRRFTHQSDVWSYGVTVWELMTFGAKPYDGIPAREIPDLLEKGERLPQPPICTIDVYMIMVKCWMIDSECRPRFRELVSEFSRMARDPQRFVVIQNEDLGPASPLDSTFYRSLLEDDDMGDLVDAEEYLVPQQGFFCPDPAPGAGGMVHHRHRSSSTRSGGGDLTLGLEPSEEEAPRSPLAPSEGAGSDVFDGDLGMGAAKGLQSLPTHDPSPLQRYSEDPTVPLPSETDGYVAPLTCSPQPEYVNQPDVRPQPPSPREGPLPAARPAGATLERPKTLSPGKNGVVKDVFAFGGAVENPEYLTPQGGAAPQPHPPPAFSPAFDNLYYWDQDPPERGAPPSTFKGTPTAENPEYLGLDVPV
pIC50: −log10 of the molar value.
measurement_label: pIC50

{"columns": ["molecule", "measurement_label", "measurement"],
 "data": [
  ["C=CC(=O)N1CC[C@@H]2C[C@H]1CN2c1ccc2ncnc(Nc3cc(Cl)c(Oc4ccn5ncnc5c4)cc3F)c2n1 [Example 177]", "pIC50", 8.24]
]}

(A) C=CC(=O)N1CCC(Oc2nc3c(Nc4ccc(Oc5ccc6cn(C)nc6c5)c(C)c4F)ncnc3cc2OC)CC1 [Example 151]
(B) C=CC(=O)N1CCN(c2ccc3ncnc(Nc4ccc(Oc5cnc6c(c5)ncn6C)c(C)c4F)c3n2)C[C@H]1C1CC1 [Example 165]
(C) C=CC(=O)N1CCN(c2ccc3ncnc(Nc4ccc(Oc5cnc6c(c5)ncn6C)c(Cl)c4)c3n2)CC1 [Example 33]
(D) CC#CC(=O)N1CCN(c2ccc3ncnc(Nc4ccc(Oc5ccn6ncnc6c5)c(C)c4F)c3n2)CC1(C)C [Example 179]
(E) C=CS(=O)(=O)Nc1ccc2ncnc(Nc3ccc(Oc4ccc5c(c4)ncn5C)c(C)c3)c2n1 [Example 20]
Lookup: Please order the records by their reported pIC50, lowest number first. Please write the labels in the order that was asked for.
Found: E, D, A, B, C
(E: 5.76, D: 6.99, A: 7.55, B: 7.80, C: 8.42)

====

molecular target: ErbB2 WT (Homo sapiens (Human), UniProt P04626); assay: ErbB Enzyme Assay (HTRF KinEASE-TK), Assay 2; format: biochemical; settings: ErbB2 WT enzyme
Sequence (P04626 23-1255): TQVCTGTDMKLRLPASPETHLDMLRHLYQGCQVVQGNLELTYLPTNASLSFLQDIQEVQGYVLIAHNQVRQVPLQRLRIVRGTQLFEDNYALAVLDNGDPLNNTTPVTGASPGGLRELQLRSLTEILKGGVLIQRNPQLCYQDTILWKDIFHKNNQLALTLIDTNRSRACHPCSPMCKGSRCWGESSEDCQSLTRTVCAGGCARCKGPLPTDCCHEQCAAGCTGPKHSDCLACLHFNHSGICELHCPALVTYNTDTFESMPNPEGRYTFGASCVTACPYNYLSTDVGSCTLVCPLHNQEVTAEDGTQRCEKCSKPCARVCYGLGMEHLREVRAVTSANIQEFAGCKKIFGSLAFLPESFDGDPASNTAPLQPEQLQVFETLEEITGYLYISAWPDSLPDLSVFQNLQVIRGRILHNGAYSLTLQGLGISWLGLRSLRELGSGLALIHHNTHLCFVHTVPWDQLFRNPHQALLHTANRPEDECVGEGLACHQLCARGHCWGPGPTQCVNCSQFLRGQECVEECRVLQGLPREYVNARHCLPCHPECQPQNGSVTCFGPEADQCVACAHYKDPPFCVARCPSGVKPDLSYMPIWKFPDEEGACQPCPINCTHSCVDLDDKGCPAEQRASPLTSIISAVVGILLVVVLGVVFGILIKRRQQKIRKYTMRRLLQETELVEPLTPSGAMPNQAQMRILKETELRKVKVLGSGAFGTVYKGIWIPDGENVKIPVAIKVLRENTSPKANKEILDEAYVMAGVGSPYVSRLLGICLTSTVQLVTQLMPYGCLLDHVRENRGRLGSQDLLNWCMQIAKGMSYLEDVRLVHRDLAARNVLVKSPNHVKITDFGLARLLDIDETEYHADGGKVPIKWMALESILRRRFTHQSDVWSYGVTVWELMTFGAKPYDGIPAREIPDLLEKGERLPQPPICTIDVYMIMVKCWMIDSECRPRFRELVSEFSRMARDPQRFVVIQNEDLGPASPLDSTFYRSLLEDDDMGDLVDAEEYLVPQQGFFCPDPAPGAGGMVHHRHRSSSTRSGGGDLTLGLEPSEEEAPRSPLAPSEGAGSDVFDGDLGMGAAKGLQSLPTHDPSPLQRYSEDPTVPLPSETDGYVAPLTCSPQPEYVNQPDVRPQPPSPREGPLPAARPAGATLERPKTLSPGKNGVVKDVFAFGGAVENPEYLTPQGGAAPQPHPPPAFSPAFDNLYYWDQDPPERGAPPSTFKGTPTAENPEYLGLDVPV
measurement_label: IC50 (nM)

{"columns": ["molecule", "measured_target", "IC50 (nM)"],
 "data": [
  ["C=CC(=O)N1C[C@H]2C[C@@H]1CN(c1ccc3ncnc(Nc4ccc(Oc5ccc6c(c5)ncn6C)c(C)c4F)c3n1)C2", "ErbB2 WT (Homo sapiens (Human), UniProt P04626)", 54.1],
  ["C=CC(=O)N1CC[C@@H]2[C@H](c3ccc4ncnc(Nc5cc(C)c(Oc6ccc7c(c6)ncn7C)cc5F)c4n3)CC[C@@H]21 (racemic)", "ErbB2 WT (Homo sapiens (Human), UniProt P04626)", 86.3],
  ["C=CC(=O)N1CCN(c2ccc3ncnc(Nc4ccc(Oc5cnc6c(c5)ncn6C)c(Cl)c4F)c3n2)CC1(C)C", "ErbB2 WT (Homo sapiens (Human), UniProt P04626)", 36.7],
  ["C=CC(=O)N1CCC(Sc2ccc3ncnc(Nc4ccc(Oc5ccc6c(c5)ncn6C)c(C)c4F)c3n2)CC1", "ErbB2 WT (Homo sapiens (Human), UniProt P04626)", 275],
  ["C=CC(=O)N1CCC(Oc2nc3c(Nc4ccc(Oc5ccc6cn(C)nc6c5)c(C)c4F)ncnc3cc2OC)CC1", "ErbB2 WT (Homo sapiens (Human), UniProt P04626)", 41.6],
  ["C=CC(=O)N1CC(c2ccc3ncnc(Nc4ccc(Oc5ccc6c(c5)ncn6C)c(C)c4F)c3n2)CC1C (centres unmarked)", "ErbB2 WT (Homo sapiens (Human), UniProt P04626)", 29.9],
  ["C=CC(=O)N1C[C@@H]2C[C@H]1CN2c1ccc2ncnc(Nc3cc(Cl)c(Oc4ccn5ncnc5c4)cc3F)c2n1", "ErbB2 WT (Homo sapiens (Human), UniProt P04626)", 17],
  ["Cc1c(Oc2ccn3ncnc3c2)ccc(Nc2ncnc3ccc(N4CCN(C(=O)C56CC5C6)C(C)(C)C4)nc23)c1F (centres unmarked)", "ErbB2 WT (Homo sapiens (Human), UniProt P04626)", 69.1]
]}

(A) C=CC(=O)N1CC[C@H](c2ccc3ncnc(Nc4ccc(Oc5ccc6c(c5)ncn6C)c(C)c4F)c3n2)CC(C)(C)C1 (racemic)
(B) C=CC(=O)N1CCN(c2ccc3ncnc(Nc4ccc(Oc5ccc6scnc6c5)c(C)c4F)c3n2)CC1(C)C
(C) CC#CC(=O)N1CCN(c2ccc3ncnc(Nc4ccc(Oc5ccn6ncnc6c5)c(Cl)c4F)c3n2)C[C@H]1C
(D) C=CC(=O)N1CCN(c2ccc3ncnc(Nc4ccc(Oc5ccn6ncnc6c5)c(C)c4F)c3n2)C[C@@H]1C
Lookup: Number of molecules to sort: 4. Sort criterion: IC50, ascending. # the answer lists labels in the order requested
Found: C, D, A, B

(I) C=CC(=O)N1C[C@@H]2C[C@H]1C[C@H]2c1ccc2ncnc(Nc3ccc(Oc4ccc5c(c4)ncn5C)c(C)c3F)c2n1 (racemic)
(II) C=CC(=O)N1CCCN(c2ccc3ncnc(Nc4ccc(Oc5cnc6c(c5)ncn6C)c(C)c4)c3n2)CC1
Lookup: Compare I and II by numeric IC50 and name the larger one. Return value: the label identifying the chosen record.
Found: II
(II: 255 nM, I: 13.3 nM)
